Biological target: T1, human BMPR1B coated on MSD plates (construct not stated) (human, UniProt O00238 14-126, limits assumed)
T1 construct: also called BMPR1B receptor
T1 sequence: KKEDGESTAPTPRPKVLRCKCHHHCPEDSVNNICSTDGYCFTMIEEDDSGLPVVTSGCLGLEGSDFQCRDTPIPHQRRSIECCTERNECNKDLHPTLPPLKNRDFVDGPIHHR
Assay: MSD ELISA, BMP4 blocked
Set-up: concentration or dose not given beside the values
Provide the reported % inhibition of each item.
Write the answer as a number in %, unit excluded.

Ask: Which value of % inhibition has been reported for SC91.9 (murine anti-BMPR1B antibody) (antibody, V domains shown, Murine hybridoma antibody) VH: QVQLQQPGAELVKPGASVKLSCKASGYTFISYWMHWVKQRPGQGLEWIGMIHPNSGSTNYNESFKSKATLTVDKSSSTAYMQLSSLTSEDSAVYYCARDLLIATVVVTPYFAYWGQGTILTVSS VL: DIQMTQTTSSLSASLGDRVTISCRASQDISNFLNWYQQKPDGTIKFLIYYTSRLHSGVPSRFSGSGSGTDYSLTIRNLEQEDIATYFCQQGNTLPYTFGGGTKLEIK in the records?
Reply: 93

Ask: // % inhibition lookup, key: SC91.111 (antibody, V domains shown, copies: 2 + 2) VH: QIQLVQSGPELKKPGETVKISCKASGYTLTTYGMNWVKQAPGKGLKWMGWINTYSGVPAYADDFKGRFAFSLETSASTAYLQINNFKNEDTATYFCARSELRNWYFDVWGTGTTVTVSS VL: SFVMTQTPKFLLVSAGDRVTITCKASQNMGHNVAWYQQKPGQSPKLLIYYASNRYTGVPDRFTGSGYGTDFTFTISTVQAEDLAVYFCQQDYSSPFTFGSGTKLEIK
Reply: 69

Ask: Recorded % inhibition of SC91.155 (antibody, V domains shown) VH: QIQLVQSGPELKKPGETVKISCKASGYTFTTYGMNWVKQAPGKGLKWMGWINSYSGVPAYADDFKGRFAFSLETFASTAYLQINNLRDEDTATYFCARSELRNWYFDVWGTGTTVTVSS VL: SFVMTQTPKFLLVSAGDRVTITCKASQNLGNDVAWYQQKPGQSPRLLIYFASNRYTGVPDRFTGSGYGTDFTFTISTVQAEDLAVYFCQQDYSSPFTFGSGTKLEIK , please.
Reply: 79

Ask: Any idea what its % inhibition is? The binder is SC91.129 (antibody, V domains shown, copies: 2 + 2) VH: QVQLQQPGAELVKPGASVKLSCKASGYTFTNYWMQWVKQRPGQGLEWIGEIDPSDRYTLYNQKFKDKATLTVDTSSSTAYMQLSSLTSEDSAVYYCARFGYYVDYWGQGTTLTVSS VL: DAVMTQSPLSLPVSLGDQASISCRSSQSLVHSTGNTYLHWYLQKPGQSPKLLIYKVSNRFSGVPDRFSGSGSGTDFTLKISRVEAEDLGVYFCSQTTHVPFTFGSGTKLEIK
Reply: 83

Ask: Data request, read-out % inhibition, for SC91.187 (antibody, V domains shown) VH: QVQLQQPGPEFVKPGASVKLSCKASGYTFTSYWVQWVKQRPGQGLEWIGEIDPSDNYTLYNQNFKGKATLTVDTSSSTAYMQLSSLTSEDSAVYYCARFGFYVDYWGQGTTLTVSS VL: DVVMTQTPLSLPVSLGEQASISCRSSQSLVHSTGNTYLHWYLQKPGQSPKLLIYKVSNRFSGVPDRFSGSGSGTDFTLKISRVEAEDLGVYFCSQSTHVPFTFGSGTKLEIK
Reply: 83

Hey, just so you know, these numbers are from patent US20190153103A1.
